# EXPERIMENTAL_SYSTEM: T1, 14-3-3β/α, full length, N-terminally His6-tagged (human, UniProt P31946 1-246)
# T1 chain: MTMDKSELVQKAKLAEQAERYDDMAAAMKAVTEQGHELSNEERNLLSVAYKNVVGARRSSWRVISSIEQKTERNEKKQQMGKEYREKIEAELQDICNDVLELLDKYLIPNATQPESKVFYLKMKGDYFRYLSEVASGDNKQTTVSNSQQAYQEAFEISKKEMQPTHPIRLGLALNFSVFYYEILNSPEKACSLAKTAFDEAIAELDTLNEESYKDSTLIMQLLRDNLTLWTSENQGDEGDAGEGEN
# ASSAY: FP
Primed or numbered codes have the meaning given here. Where no end group is shown, it is not given here. [ ]: non-standard residue; d: D form. The star is where a group is joined. PEG2′ = short PEG linker placed between the N-terminal FITC label and the peptide; FITC = O=C1OC2(c3ccc(O)cc3Oc3cc(O)ccc32)c2ccc(NC(=S)*)cc21; pT = C[C@@H](OP(=O)(O)O)[C@H](N)C(=O)O; pS = N[C@@H](COP(=O)(O)O)C(=O)O
METRIC_NAME: Kd (nM)
Kindly answer with a numeric value in nM, unit omitted.

Find the recorded Kd belonging to EKNKNAN[pS]SPVASTTPSASATTNPASATTLDQSKAWNR (not fully specified (N-terminus); also: FITC via PEG2 linker, site not given here) [fluorescently labeled peptide 7, APN 36–73 pSer43] and report it. 60000

Also, EKNKNAN[pS]SPVASTTPSASATTNPASA[pT]TLDQSKAWNR (not fully specified (N-terminus); also: FITC via PEG2 linker, site not given here) [fluorescently labeled peptide 11, APN 36–73 pSer43 pThr63] please. 110

Also, {FITC-PEG2′}-NKNAN[pS]SPV [FITC-labeled peptide 1, APN 38–46 pSer43] please. 710

Also, {FITC-PEG2′}-EKNKNAN[pS]SPVASTTPSASATTNPASATTLDQSKAWNR (also: second phosphorylation within Ser61–Thr64, site not given here) [fluorescently labeled peptide 10, APN 36–73, bis-phosphorylated] please. 880
